Measured Cell Viability of individual entries
# Test system: Colon cancer organoid
# ASSAY_EXPLANATION: Identification of compartment-specific drug sensitivities in O20 CRC organoid-stroma F20 CAF co-cultures. Organoid is transduced with Lucferase2-P2A-EGFP lentivirus, fibroblast with Renilla-dsRed lentivirus. Dual-Glo Luciferase assay is used to report viability data.
# Type: functional, Homo sapiens
# Design: dose or concentration left out as unconfirmed
# CONDITION_CONTEXT: Transduced with Lucferase2-P2A-EGFP lentivirus
Could you give the number and then its unit, please?

Below are worked cases with known answers.
chemical_string=Cc1sc2c(c1C)C(c1ccc(Cl)cc1)=N[C@@H](CC(=O)OC(C)(C)C)c1nnc(C)n1-2 assay_readout="Cell Viability" result=11.1793%
chemical_string=CN(C(=O)c1cnn2cccnc12)c1cc2c(cc1N1CCOCC1)C(=O)N(C[C@@H](F)C(C)(C)O)C2 assay_readout="Cell Viability" result=85.5909%
chemical_string=CCOc1cc2ncc(C#N)c(Nc3ccc(OCc4cccc(F)c4)c(Cl)c3)c2cc1NC(=O)/C=C/CN(C)C assay_readout="Cell Viability" result=50.6947%

Kindly state the measured Cell Viability obtained for CCOCCn1cc(C(=O)Nc2ccc(-n3nc(-c4cccnc4)cc3C(F)(F)F)cn2)ccc1=O with Colon cancer organoid.
76.3275%

Recall the recorded Cell Viability for CN(C)C(=O)c1ccc(-c2cc(C(=O)N[C@@H]3CCc4ccccc43)no2)cc1O with Colon cancer organoid and state it.
99.2292%

====

Measured Cell Viability, listed per entry.
# System: Colon cancer organoid
# ASSAY_EXPLANATION: Identification of compartment-specific drug sensitivities in O06 CRC organoid-stroma F06 CAF co-cultures. Organoid is transduced with Lucferase2-P2A-EGFP lentivirus, fibroblast with Renilla-dsRed lentivirus. Dual-Glo Luciferase assay is used to report viability data.
# Assay type: functional, Homo sapiens
# Parameters: dose or concentration left out as unconfirmed
# CONDITION_CONTEXT: Transduced with Renilla-dsRed lentivirus
Answer format: number, then unit.

Would you please look over these solved cases?
compound="N#Cc1cnc(Nc2cc(NC[C@H]3CNCCO3)c(C(F)(F)F)cn2)cn1 [SRA-737]" assay_readout="Cell Viability" result=120.027%
compound="CC1=C(C(=O)Nc2cc3cn[nH]c3cc2F)C(c2ccc(C(F)(F)F)cc2)CC(=O)N1 (stereo unspecified)" assay_readout="Cell Viability" result=74.1449%
compound=c1ccc(C2CCN(c3cnc4c(N5CCOCC5)nccn34)CC2)cc1 assay_readout="Cell Viability" result=144.176%
compound="Cn1nc(C(F)(F)F)cc1-c1cnc(N2CCc3cc(S(=O)(=O)Nc4c(F)cc(Cl)cc4F)cc(N4CCCC4=O)c32)nc1 [TP-020]" assay_readout="Cell Viability" result=110.898%

Query Cell Viability on Colon cancer organoid for CC(C)(C)c1cc(NC(=O)Nc2ccc(-c3cn4c(n3)sc3cc(OCCN5CCOCC5)ccc34)cc2)no1 [QUIZARTINIB]
134.448%

Tell me reported Cell Viability for CC(C)S(=O)(=O)c1ccc2nccc(Nc3ccc4scnc4c3)c2c1 , tested with Colon cancer organoid.
95.5761%

Request body: readout Cell Viability, system Colon cancer organoid, query COc1ccccc1S(=O)(=O)Nc1ccc2c(c1)CN(C)C(=O)N2 . Return the value.
112.248%

Find Cell Viability (Colon cancer organoid) for the entry Cc1ccc(-c2ccc3c(ccc4sc5c(c43)NC[C@@H](C)NC5=O)n2)cn1
85.371%
